Would you mind telling me the reported self-cleavage of each entry?
B1: CPEB3 Ribozyme (parent)
chain: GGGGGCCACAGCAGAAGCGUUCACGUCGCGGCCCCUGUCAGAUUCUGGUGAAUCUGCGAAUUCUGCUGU

Variants of: B1
Assay: self-cleavage, relative activity (ratio to wild type); higher = more cleavage; co-transcriptional
Number only, no unit.

Answer with reported self-cleavage of C7A C66U
0.697

Provide one value: measured self-cleavage of G11A G19U
0.088

Give recorded self-cleavage. G56A A59G
0.649

Answer with reported self-cleavage of A23G C63A
0.681
